- subject-of-test: CDK2/Cyclin E1 (Homo sapiens)
- Construct: enzyme activity assays utilize full-length human CDK2; GST (N)
- assay-overview: CDK2/Cyclin E1 HTRF enzyme activity assay
- particulars: 1 mM ATP
measured-attribute: IC50

# count of solved cases: 2
C[C@@H]1CN(S(C)(=O)=O)CC[C@@H]1Nc1nc2c(OCC(F)(F)F)c(-c3cn[nH]c3)ncn2n1
≤ 10 nM
C[C@@H]1CN(S(C)(=O)=O)CC[C@@H]1Nc1nc2c(OC3CCC3)c(-c3cn[nH]c3)ncn2n1
≤ 10 nM

In: Can you share its IC50? I mean this molecule: C[C@@H]1CN(S(C)(=O)=O)CC[C@@H]1Nc1nc2cnc(-c3cn[nH]c3)c(OCC(F)(F)F)n2n1
Out: ≤ 10 nM
